Origin of measurements: paper PMC10249623

Would you mind telling me the reported log KHxd/w batch partition method mean of each entry?
Assay: Hexadecane/water partition coefficient, batch partition method
Format: physicochemical
Cond: pure water, 25 °C, n = 5
Field format: numeric only.

**Query** log KHxd/w batch partition method mean for OCCC(F)(F)C(F)(F)C(F)(F)C(F)(F)C(F)(F)C(F)(F)F ?
**Result** 2.50

**Query** Also need CN(CCO)S(=O)(=O)C(F)(F)C(F)(F)C(F)(F)C(F)(F)F , thanks.
**Result** 0.49

**Query** Also need CC(O)C(F)(F)C(F)(F)C(F)(F)C(F)(F)C(F)(F)F (stereo not drawn) , thanks.
**Result** 2.00

---

Would you mind telling me the reported log KHxd/w batch partition method mean of each entry?
Assay: Hexadecane/water partition coefficient, batch partition method
Type: physicochemical
Cond: pure water, 25 °C, n = 5

**Query** log KHxd/w batch partition method mean for OCCCCC(F)(F)C(F)(F)C(F)(F)C(F)(F)F ?
**Result** 1.60

**Query** Also need CCN(CCO)S(=O)(=O)C(F)(F)C(F)(F)C(F)(F)C(F)(F)C(F)(F)C(F)(F)F , thanks.
**Result** 2.76

**Query** Also need OCCCC(F)(F)C(F)(F)C(F)(F)F , thanks.
**Result** 0.52

**Query** Also need OCCC(F)(F)C(F)(F)C(F)(F)C(F)(F)F , thanks.
**Result** 0.79

---

Assay: Direct measurement of Kaw using the standard VPR-HS method
Assay type: physicochemical
Cond: measured by the VPR-HS method in this study, 25 °C
Marks after values point to notes of the source that are not given here.
Endpoint Label: log Kaw VPR-HS

[[record]]
compound = "OCCC(F)(F)C(F)(F)C(F)(F)C(F)(F)F [4:2 FTOH, 1H,1H,2H,2H-perfluorohexan-1-ol]"
endpoint_label = "log Kaw VPR-HS"
result_value = "–1.56"


---

Would you mind telling me the reported log KHxd/w modified VPR-HS method mean of each entry?
Assay: Hexadecane/water partition coefficient, modified VPR-HS method
Type: physicochemical
Cond: 25 °C
Field format: numeric only.

**Query** log KHxd/w modified VPR-HS method mean for CC(O)C(F)(F)C(F)(F)C(F)(F)C(F)(F)C(F)(F)F (stereo not shown) ?
**Result** 1.55

**Query** Also need OCCCCC(F)(F)C(F)(F)C(F)(F)C(F)(F)F , thanks.
**Result** 1.43

**Query** Also need OCCC(F)(F)C(F)(F)C(F)(F)C(F)(F)F , thanks.
**Result** 0.75

**Query** Also need OCCCC(F)(F)C(F)(F)C(F)(F)F , thanks.
**Result** 0.32

---

Assay: Hexadecane/water partition coefficient, shared-headspace method
Assay type: physicochemical
Cond: 25 °C, n = 5
Would you mind telling me the reported log KHxd/w shared-headspace method mean of each entry?
Field format: numeric only.

**Query** log KHxd/w shared-headspace method mean for OCC(F)(F)C(F)(F)C(F)(F)C(F)(F)C(F)(F)C(F)(F)C(F)(F)F ?
**Result** 2.70

**Query** Also need OCCC(F)(F)C(F)(F)C(F)(F)C(F)(F)C(F)(F)C(F)(F)F , thanks.
**Result** 2.51

**Query** Also need C=C(C)C(=O)OCCC(F)(F)C(F)(F)C(F)(F)C(F)(F)F [4:2 FTMAC, 1H,1H,2H,2H-perfluorohexyl methacrylate] , thanks.
**Result** 4.65

**Query** Also need FC(F)(F)C(F)(F)C(F)(F)C(F)(F)C(F)(F)C(F)(F)CI [6:1 FTI, 1H,1H-perfluoroheptyl iodide] , thanks.
**Result** 5.66

**Query** Also need FC(F)C(F)(F)C(F)(F)C(F)(F)C(F)(F)C(F)(F)CI [6:1 FTI-7H, 1H,1H,7H-perfluoroheptyl iodide] , thanks.
**Result** 4.62

**Query** Also need OCCC(F)(F)C(F)(F)C(F)(F)C(F)(F)C(F)(F)C(F)(F)C(F)(F)C(F)(F)F , thanks.
**Result** 3.75

**Query** Also need CC(O)C(F)(F)C(F)(F)C(F)(F)C(F)(F)C(F)(F)F (stereo not drawn) , thanks.
**Result** 2.04

**Query** Also need FC(F)(F)C(F)(F)C(F)(F)C(F)(F)CCI [4:2 FTI, 1H,1H,2H,2H-perfluorohexyl iodide] , thanks.
**Result** 4.93

**Query** Also need C=CC(=O)OCCC(F)(F)C(F)(F)C(F)(F)C(F)(F)C(F)(F)C(F)(F)F [6:2 FTAC, 1H,1H,2H,2H-perfluorooctyl acrylate] , thanks.
**Result** 5.43
